molecular target: Rat striatal nicotinic receptors ([3H]nicotine binding) (Rattus norvegicus, UniProt P09483+P12390); construct: Whole brain, excluding cortex and cerebellum, was homogenized; from tissue; host or cells: rat brain membranes (whole brain excluding cortex and cerebellum); assay: Inhibition of [3H]nicotine binding; details: full concentration effect evaluated; 3 nM [3H]nicotine
Sequence (P09483 31-630): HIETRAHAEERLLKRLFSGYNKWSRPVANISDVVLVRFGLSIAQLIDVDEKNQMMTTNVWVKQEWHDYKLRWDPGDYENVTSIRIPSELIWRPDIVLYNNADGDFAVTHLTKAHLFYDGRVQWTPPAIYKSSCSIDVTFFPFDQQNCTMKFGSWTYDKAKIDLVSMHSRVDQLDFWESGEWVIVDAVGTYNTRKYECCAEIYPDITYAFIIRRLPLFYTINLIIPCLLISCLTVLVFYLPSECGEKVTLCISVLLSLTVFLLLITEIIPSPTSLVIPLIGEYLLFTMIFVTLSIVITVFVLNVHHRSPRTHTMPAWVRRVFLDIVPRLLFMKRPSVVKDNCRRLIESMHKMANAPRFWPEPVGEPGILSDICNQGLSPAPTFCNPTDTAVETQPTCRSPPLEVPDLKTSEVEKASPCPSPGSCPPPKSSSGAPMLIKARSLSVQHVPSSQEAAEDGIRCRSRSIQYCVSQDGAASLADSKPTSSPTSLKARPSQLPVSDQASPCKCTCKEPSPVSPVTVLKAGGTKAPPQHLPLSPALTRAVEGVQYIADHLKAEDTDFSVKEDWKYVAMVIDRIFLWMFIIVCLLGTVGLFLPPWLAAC
Sequence (P12390 25-500): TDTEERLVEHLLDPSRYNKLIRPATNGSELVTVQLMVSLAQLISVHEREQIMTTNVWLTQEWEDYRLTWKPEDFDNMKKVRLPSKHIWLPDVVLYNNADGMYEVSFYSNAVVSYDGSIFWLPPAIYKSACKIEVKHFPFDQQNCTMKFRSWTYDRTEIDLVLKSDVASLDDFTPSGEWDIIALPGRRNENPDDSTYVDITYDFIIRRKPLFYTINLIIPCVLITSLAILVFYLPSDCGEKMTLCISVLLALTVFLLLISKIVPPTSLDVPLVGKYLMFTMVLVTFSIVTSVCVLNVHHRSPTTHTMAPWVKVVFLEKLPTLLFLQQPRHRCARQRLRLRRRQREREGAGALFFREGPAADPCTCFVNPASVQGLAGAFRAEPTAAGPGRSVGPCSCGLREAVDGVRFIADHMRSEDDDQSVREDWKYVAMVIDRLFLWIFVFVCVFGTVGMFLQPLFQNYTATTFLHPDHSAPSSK
endpoint-label: pKi
Quick note: pKi means taking -log10 of the concentration in moles per liter.

Documented pKi of C1#Cc2ccc[n+](c2)CCCCCCCCCC[n+]2cccc(c2)C#CCCCCCC1 : 6.26

----------
Reported Inhibition of [3H]MLA Binding values follow for various compounds
Biological target: Rat striatal nicotinic receptors ([3H]MLA binding) (Rattus norvegicus, UniProt Q05941)
Construct: Whole brain, excluding cortex and cerebellum, was homogenized; from tissue; host or cells: rat brain membranes (whole brain excluding cortex and cerebellum)
Sequence (Q05941 23-502): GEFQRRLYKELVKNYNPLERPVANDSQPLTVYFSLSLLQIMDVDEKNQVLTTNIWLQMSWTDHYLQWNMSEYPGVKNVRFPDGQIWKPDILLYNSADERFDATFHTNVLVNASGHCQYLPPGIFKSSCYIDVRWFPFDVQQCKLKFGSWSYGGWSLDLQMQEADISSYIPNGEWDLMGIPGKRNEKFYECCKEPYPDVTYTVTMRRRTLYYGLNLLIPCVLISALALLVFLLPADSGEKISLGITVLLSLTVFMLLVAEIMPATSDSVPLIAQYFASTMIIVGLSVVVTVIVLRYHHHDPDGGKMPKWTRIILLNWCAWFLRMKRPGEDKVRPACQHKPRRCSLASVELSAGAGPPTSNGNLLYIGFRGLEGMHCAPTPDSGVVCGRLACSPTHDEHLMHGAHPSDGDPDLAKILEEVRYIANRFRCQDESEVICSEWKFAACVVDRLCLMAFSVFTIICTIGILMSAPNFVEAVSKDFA
Assay: Inhibition of [3H]methyllycaconitine (MLA) binding
Details: % inhibition at 100 nM analog; 2.5 nM [3H]MLA; nonspecific binding with 1 μM nicotine (footnote b)
Procedure: Whole brain, excluding cortex and cerebellum, was homogenized in 20 vol of ice-cold buffer, containing (in mM): 2 HEPES, 11.8 NaCl, 0.48 KCl, 0.25 CaCl2 and 0.12 MgSO4, pH 7.5. Homogenate was centrifuged (25,000 g, 15 min, 4° C.). […] After 60 min, filter plates were top-sealed, and radioactivity determined using a Packard TopCount. Protein concentrations were determined using the Bradford dye-binding procedure bovine serum albumin as the standard.
Please answer using a numeric value trailed by its unit.

// known answers, use as guide
- c1cc2c[n+](c1)CCCCCCCCCCCCc1ccc[n+](c1)CCCCCCCCCCCC2: 0%
- C1#Cc2ccc[n+](c2)CCCCCCCC[n+]2cccc(c2)C#CCCCCCC1.[I-].[I-]: 0%

Documented Inhibition of [3H]MLA Binding of C1#Cc2ccc[n+](c2)CCCCCC[n+]2cccc(c2)C#CCCCCCC1.[I-].[I-] : 2%

Documented Inhibition of [3H]MLA Binding of C1#Cc2ccc[n+](c2)CCCCCCCCC[n+]2cccc(c2)C#CCCCCCC1.[Br-].[Br-] : 3%

Documented Inhibition of [3H]MLA Binding of c1cc2c[n+](c1)CCCC[n+]1cccc(c1)CCCCCCCCCCCC2 : 3.0 ± 3.0%

Documented Inhibition of [3H]MLA Binding of C1#Cc2ccc[n+](c2)CCCCCCCCCCC[n+]2cccc(c2)C#CCCCCCC1.[Br-].[Br-] : 3%
